Listed here are sequences together with their documented Tm.
# Test Details: melting temperature; fluorescence melt of hairpins on a sequencing array, two-state fit, raised by 9.35 °C to match UV melts
# Condition Summary: sodium 0.088 M

Sequence Content	Tm / °C
GGAGGTGGAAACACCTTC (.(((((....))))).)	51.4
GGGGTCGGAAACGGCCTC (.((.((....)).)).)	51.5
GATCCAGATTTGGATC ((((((....))))))	50.4
GCTACGCGAAAGCGATGC ((..(((....)))..))	50
GATCGAATCTTCGATC ((((((....))))))	54.2
GGAGTCGAAAGACATTCC ((((((....)))..)))	27.9
GGGGAACGAAAGTTTCCC (((.(((....))).)))	61.1
